# tested-system: human PD-L1 expressed on cells (HCC827, NCI-H292, CHO-PD-L1, engineered CHO-K1) (human, UniProt Q9NZQ7 19-290)
# Sequence (Q9NZQ7 19-290, change not shown): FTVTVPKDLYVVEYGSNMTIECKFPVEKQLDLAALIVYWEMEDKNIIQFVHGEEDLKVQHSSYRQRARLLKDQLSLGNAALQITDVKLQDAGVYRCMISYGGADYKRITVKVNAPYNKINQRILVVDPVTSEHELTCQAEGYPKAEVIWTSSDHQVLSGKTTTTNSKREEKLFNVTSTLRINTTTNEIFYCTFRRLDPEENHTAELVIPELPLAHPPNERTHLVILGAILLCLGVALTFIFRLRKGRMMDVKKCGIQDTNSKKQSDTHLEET
# procedure-details: cell-based or functional assay
Consider the following binders; for each one, report its IC50, nM (Function).
Number only, in nM; omit the unit.

Exercise: Supply IC50, nM (Function) value. Item: 769-hIgG1 (chimeric PAL769) (antibody, V domains shown) VH: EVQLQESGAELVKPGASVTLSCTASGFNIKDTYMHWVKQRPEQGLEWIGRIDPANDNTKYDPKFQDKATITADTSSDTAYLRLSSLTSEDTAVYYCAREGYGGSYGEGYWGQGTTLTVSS VL: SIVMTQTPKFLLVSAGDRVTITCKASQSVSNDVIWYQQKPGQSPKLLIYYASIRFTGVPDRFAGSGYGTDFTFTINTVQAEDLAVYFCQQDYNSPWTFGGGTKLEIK
Key: 0.5

Exercise: Supply IC50, nM (Function) value. Item: 771-hIgG1 (chimeric PAL771) (antibody, V domains shown) VH: EVQLQESGAELVKPGASVKLSCTASGFNIKDTYMHWVKQRPEQGLEWIGRIDPANGNTKYDPKFPGKATITADTSSNTAYLQLSSLTSEDAAVYYCARPFNYRFYDVYYFDYWGQGTTLTVST VL: QIVLTQSPAIMSASPGEKVTMTCSASSSVSYMYWYQQKPGSSPRLLIYDTSNLASGVPLRFSGSGSGTSYSLTLSRMEAEDAATYYCQQWSTYPLTFGAGTKLELK
Key: 1

Exercise: Supply IC50, nM (Function) value. Item: 752-hIgG1 (chimeric PAL752) (antibody, V domains shown) VH: EVQLQESGAELARPGASVKLSCKASGHAFTSDSINWVKQRIGQGLEWIGEIYPRSGNPYYNEKFKGKATLTADKSSSTAYMELRSLTSEDSAVYFCATDYYGRYFDVWGTGTTVTVSS VL: DIQMTQSSFSFSVSLGDRVTIICKASEDIYNRLAWYQQKPGNTPRLLISGATSLETGVPSRFSGSGSGKDYTLSITSLQTEDVATYYCQQYWSTPWTFGGGTKLEIK
Key: 1.5

Exercise: Supply IC50, nM (Function) value. Item: 785-hIgG1 (chimeric PAL785) (antibody, V domains shown) VH: EVQLQESGPELVKPGTSVKMSCKASGYTFTSYVMHWVKQRPGQGLEWIGYINPYNDGSKYNEKFKGKATLTSDTSSSTAYMELSSLTSEDSAVYYCAKQTLDFWGQGTSVTVST VL: DIVLTQSPASLAVSLGQRATISCRASESVEFYGTTLMQWYQQKPGQPPKLLIYAASNVESGVPARFSGSGSGTDFSLNIHPVEEGDIGMYFCQQSRKVPYTFGGGTKLEIK
Key: 0.5

Exercise: Supply IC50, nM (Function) value. Item: 788-hIgG1 (chimeric PAL788) (antibody, V domains shown) VH: QVQLQQPGAELVKPGASVKLSCKASGYTFTSNWMNWVKQRPGRGLEWIGRIHPSDSETHYHQKFKSKATLTVDKSSSTAYIQLSSLTSEDSAVYYCAHSSGDYGRDYWGQGTTLTVSS VL: NIVLTQSPASLAVSLGQRATISCRASESVDSYGNSFMHWYQQKPGQPPKLLIYLASNLQSGVPARFSGSGSRTDFTLTIDPVEADDAATYYCQQNNEDPWTFGGGTKLEIK
Key: 0.9
